reported-endpoint: melting point

Guide cases for melting point, answers given:
Cc1ccnc2c(Oc3ccccc3N)cccc12 :: 160 to 161 °C
CN(CCOc1ccc(CCCN2C(=O)COC2=O)cc1F)c1ccccn1 :: 124 to 125 °C
Cc1cc(C2=NOC(c3cc(Cl)cc(Cl)c3)(C(F)(F)F)C2)ccc1C(=O)N(C)C1CCCS1 (centres undefined) :: 146 to 151 °C

Now, please, on to the next molecule.
In plain terms, C[C@@H](n1ccnc1)C(O)(c1ccc(Cl)cc1)c1ccc(Cl)cc1 has a documented melting point of 159 to 161 °C

---

reported-endpoint: melting point

CN1CCN(C(=O)OC2c3ccccc3C(=O)N2c2ccc3ncccc3n2)CC1 (stereo not drawn) :: 170 to 171 °C
CC(C)c1ccccc1Sc1c(O)cc(-c2cccc(Cl)c2)oc1=O :: 177 to 178 °C
Nc1ccc2c(c1)CN(CCC1CCCCN1S(=O)(=O)c1cccc3ccccc13)CC2 (stereo not drawn) :: 212 to 218 °C
CCCCCCCCCCN(O)C(=O)N(C)C :: 44 to 45 °C
O=c1[nH]c2cc(F)ccc2n(C2CCCCC2)c1=O :: 290 °C
CCCc1nc2c(N)nc3cc(-c4ccccc4)ccc3c2n1CCCC(C)=NOC :: 191 to 192 °C

For record Cc1cccc(-c2cnn(-c3ccnc(-c4ccc(CN5CCOCC5)cc4)c3)c2)n1 the listed melting point is 128 °C

Record CC(=O)NC[C@H]1CN(c2cc(F)c(N3CCN(CCO)CC3)c(F)c2)C(=O)O1 , field melting point: 172 to 174 °C

Field melting point (entry CCOC(=O)C1=C(COCCNc2noc(N)n2)NC(C)=C(C(=O)OC)C1c1ccccc1Cl (stereo not drawn) ) reads 135 °C

Measured melting point, O=C(O)c1cc(C#Cc2ccc(C(=O)O)c(C(=O)O)c2)cc(C(=O)O)n1 : > 300 °C

Form field melting point, entry NCCOc1cc(F)cc2c1OCCC2 : 68 to 70 °C

Item: CNC(=O)Oc1cc(C)c(NC(=O)C(F)(F)Cl)c(C)c1 | melting point: 163 to 165 °C

Form field melting point, entry Cc1ccc(C(=O)C2=C(O)C(=O)N(c3ccc(C)nn3)C2c2cccc(C(F)(F)F)c2)cc1 (stereo not drawn) : 232 °C

Please fill in: melting point reported for O=C(Nc1cccc(S(=O)(=O)NCc2ccccc2)c1)c1cnn2c(C(F)F)cc(-c3ccc(C(F)(F)F)cc3)nc12 = 230 °C

// melting point lookup, molecule = O=c1ccc2c(-n3cccn3)nccc2[nH]1 , result: > 300 °C

Record Cc1ccc(CC2(O)CCN(CCOC(=O)c3ccc(OCc4ccccc4)cc3)CC2)cc1 , field melting point: 102 °C

Noted for CCC[C@H]1C(=O)N[C@H]2CCN[C@@H]21 (relative stereo) : its melting point reads 97 to 100 °C

Measured melting point of CCOC(=O)C1[C@H]2O[C@@H]3COC(C)(C)O[C@H]3C(=NO)[C@@H]12 (stereo partly drawn) : 210 to 213 °C

Just so you know, measured melting point for CN1CCC(NC(=O)c2cccc3nc(-c4ccccc4)oc23)CC1 came out at 209 to 210 °C

Per the record, Cc1ccc(-n2ncc(C(=O)O)c2C)cc1 has melting point of 203 °C

For reference, reported melting point for CCCCNC(=O)Nc1ccc(C)cc1 stands at 118 to 119 °C

CC(=O)N1CCN(Cc2sccc2S(=O)(=O)N(C)c2cccc3cc(-c4nccs4)[nH]c23)CC1 yielded melting point of 242 °C

The reported value for c1ccn(Nc2ccncc2)c1 in terms of melting point is 150 °C

What the record says about NS(=O)(=O)c1ccc(-n2nc(C(F)(F)F)cc2-c2ccc(-c3cscn3)c(C(F)(F)F)c2)cc1F : melting point is 140 to 142 °C

Record CC(C)c1nn(-c2ccc(C(F)(F)F)cn2)cc1CCCOc1nn(C)cc1CCC(=O)O . Reported melting point: 124 to 125 °C

The measured melting point associated with CC1(C)C(=O)Nc2cc3[nH]c(-c4ccccc4)nc3cc21 reads 195 to 220 °C

Just so you know, measured melting point for Cc1nnc(-c2sc(N3CCN(Cc4ccc(F)cc4)C3=O)nc2C)[nH]1 came out at 248 to 249 °C

Entry CC1(O)C(CO)OC(n2cnc3c(N)ncnc32)C1(C)O (stereo not drawn) ; melting point = 180 °C

Note to self: melting point recorded for CC(C)(C)C(=O)Nc1nc(O)c2c(n1)NCC(CO)C2 (stereo not drawn) was 236 to 238 °C

Ref: a melting point compilation (Tetko et al.; mined from patent text by program, amines drawn as free bases though some values may be those of a salt)
